These data points were gathered from patent US10266513B2.

Target: human full-length BTK Kinase (Homo sapiens (Human), UniProt Q06187)
Sequence (Q06187 whole entry): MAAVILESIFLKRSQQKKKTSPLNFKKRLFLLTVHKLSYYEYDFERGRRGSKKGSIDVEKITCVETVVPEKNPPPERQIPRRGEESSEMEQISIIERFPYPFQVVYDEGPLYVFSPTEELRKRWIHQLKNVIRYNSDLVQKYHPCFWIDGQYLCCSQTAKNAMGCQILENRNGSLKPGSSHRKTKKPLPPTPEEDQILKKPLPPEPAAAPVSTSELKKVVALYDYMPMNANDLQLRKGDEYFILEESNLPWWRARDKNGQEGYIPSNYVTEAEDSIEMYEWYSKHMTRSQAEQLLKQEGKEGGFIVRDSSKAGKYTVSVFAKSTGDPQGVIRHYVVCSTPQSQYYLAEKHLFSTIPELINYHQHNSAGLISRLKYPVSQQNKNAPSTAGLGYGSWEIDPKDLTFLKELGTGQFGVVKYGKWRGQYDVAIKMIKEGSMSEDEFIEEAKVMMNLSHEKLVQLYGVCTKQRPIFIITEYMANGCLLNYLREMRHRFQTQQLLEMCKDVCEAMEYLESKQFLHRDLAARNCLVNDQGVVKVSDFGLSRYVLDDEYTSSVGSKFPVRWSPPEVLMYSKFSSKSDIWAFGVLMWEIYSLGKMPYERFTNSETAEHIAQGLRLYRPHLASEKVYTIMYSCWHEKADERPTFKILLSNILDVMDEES
pIC50: −log10 of the molar value.
Label Met when pIC50 >= 8; otherwise Not met.

Query block: Quick check: does `NC(=O)c1c(-c2ccc(Oc3cccc(C(F)(F)F)n3)cc2)nn([C@@H]2CCCN(C(=O)/C=C/CF)C2)c1N` have pIC50 greater than or equal to 8?
Result block: Met

Query block: For N#CN1CCC[C@@H](n2nc(-c3ccc(Cc4ccccc4F)cc3)c(C(N)=O)c2N)C1 (single isomer, unassigned) then?
Result block: Met

Query block: Moving on to the next molecule: N#CN1CCCC(n2nc(-c3ccc(Oc4ccc(F)cc4Cl)cc3)c(C(N)=O)c2N)C1 (single isomer, unassigned) [Example 37]
Result block: Met

Query block: Also `C=CC(=O)N1CCC[C@@H](n2nc(-c3ccc(Oc4ccc(Cl)cc4)cc3)c(C(N)=O)c2N)C1` , if possible.
Result block: Met

Query block: Another molecule: N#CN1CCCC(n2nc(-c3ccc(Cc4ccc(Cl)cc4)cc3)c(C(N)=O)c2N)C1 (stereo not drawn)
Result block: Not met

Query block: Please do the same for N#CN1CCCC(n2nc(-c3cccc(Cc4ccc(F)cc4)c3)c(C(N)=O)c2N)C1 (stereo not drawn) as well.
Result block: Not met

Query block: Field entry: N#CN1CCCC(n2nc(-c3cccc(Oc4ccc(F)c(F)c4)c3)c(C(N)=O)c2N)C1 (stereo not drawn)
Result block: Not met

Query block: Next up: Cc1ccc(Oc2ccc(-c3nn(C4CCCN(C#N)C4)c(N)c3C(N)=O)cc2)cc1C (single isomer, unassigned) [Example 18]
Result block: Met

Query block: Check Cc1c(F)cccc1Oc1ccc(-c2nn(C3CCCN(C#N)C3)c(N)c2C(N)=O)cc1 (stereo not drawn) too.
Result block: Met

Query block: Param item: N#CN1CCCC(n2nc(-c3ccc(Oc4ncc(F)cc4F)cc3)c(C(N)=O)c2N)C1 (stereo not drawn)
Result block: Met

Query block: Further, for N#CN1CCCC(n2nc(-c3ccc(Cc4cccc(F)c4)cc3)c(C(N)=O)c2N)C1 (stereo not drawn) [Example 77] ?
Result block: Met

Query block: Next molecule: N#CN1CCCC(n2nc(-c3ccc(C(O)c4ccccc4)cc3)c(C(N)=O)c2N)C1 (stereo not drawn)
Result block: Met

Query block: Now this one: `C=C(F)C(=O)N1CCC[C@@H](n2nc(-c3ccc(Oc4ccc(F)cc4F)cc3)c(C(N)=O)c2N)C1`
Result block: Met

Query block: Another molecule to check: N#CN1CCCC(n2nc(-c3ccc(Oc4ccc(F)c(F)c4F)cc3)c(C(N)=O)c2N)C1 (stereo not drawn)
Result block: Met

Query block: Would you kindly repeat that for N#CN1CCCC(n2nc(-c3ccc(Oc4ccc(F)cc4)cc3Cl)c(C(N)=O)c2N)C1 (stereo not drawn) ?
Result block: Not met
